- System: VchCAST RNA-guided transposition machinery (E. coli BL21(DE3) host, lacZ target)
- ASSAY_OVERVIEW: relative integration efficiency (T-RL orientation) vs wild-type transposon end (log2 (normalized fold change)); transposon end mutated: right end (5 bp flank + 75 bp right end); higher = more efficient transposition
MEASURED_PROPERTY: relative integration efficiency (log2)
When you answer, write just the number.

Use these answered entries as a reference point.
# get_value(readout='relative integration efficiency (log2)', item= ACATTTGTTGATACAACCATAAAATGATAATGACACCCATAAATTGATAATGATCACACCCATAAATTGATATTTCCTCTGATCATAGTCAGACCAACATTGCTACGACCCGTATTCGCACCGACAC )
-0.238

Looking for the measured relative integration efficiency (log2) of ACATTTGTTGATATGTTCAACCATAAAATGATAATTACACCCATAAATTGATAATTATCACACCCATAAATTGATATTGCCTCTGATCATAGTCAGACCAACATTGCTACGACCCGTATTCGCACCG , can you help?
-6.34

Continuing:
Tell me the measured relative integration efficiency (log2) of ACATTTGTTGATACAACCATAAAATGATAATTACACCCATAAATTGATAATTATCACAGGCATAAATTGATATTGCCTCTGATCATAGTCAGACCAACATTGCTACGACCCGTATTCGCACCGACAC , please.
-0.0803

# lookup: relative integration efficiency (log2) of ACATTTGTTGATACAACCATAAAGTGATATTTACAACCATAAAATGATAATTATCACAACCATAAAATGATAATTACTCTGATCATAGTCAGACCAACATTGCTACGACCCGTATTCGCACCGACAC
0.174

# lookup: relative integration efficiency (log2) of CACGTTGTTGATACAACCATAAAATGATAATTACACCCATAAATTGATAATTATCACACCCATAAATTGATATTGCCTCTGATCATAGTCAGACCAACATTGCTACGACCCGTATTCGCACCGACAC
-0.27

Quick check: relative integration efficiency (log2) of CAAAATGTAAAAAAAACCATACGTTGATTTTACCACCCATAAATTGATAATTAAAACAACCATACCTTGAAATTGCTTATAAAGTGTACAACACTTGAGAAAGTTTACTACAGGTATGCACCGACAC ?
-4.98

May I ask what relative integration efficiency (log2) has been recorded for ACATTTGTTGATGCAACCATAAAATGATAATTAATAATTATTTATAATCAGCAACTTAACCACAAAACACCCATAAATTGATAATTAACAAAACACCCATAAATTGATATTGCCTCTGATCATAGTC ?
-4.62

Which relative integration efficiency (log2) is listed for ACATTTGTTGATACAACCATAAAATGATAATTAATAATTATTTATAATCAGCAACTTCACCCATAAATTGATAATTATCAACAAACGCCCGGTCGCGGTACTCTGATCATAGTCAGACCAACATTGC ?
-2.15

Query (sequence): ACATTTGTTGATACAACCATAAAATGATAATTACACCCATAAATTGATAATTACACCCATAAATTGATATTGCCTCTGATCATAGTCAGACCAACATTGCTACGACCCGTATTCGCACCGACACTGA ; field requested: relative integration efficiency (log2)
-0.821

What measured relative integration efficiency (log2) goes with ACATTTGTTGATACAACCATAAAATGATAATTACACCCATAAATTGATAATTATCACACCCATCCCGGTCGCGGTAAGAGGATCATAGTCAGACCAACATTGCTACGACCCGTATTCGCACCGACAC ?
-0.648
